Quick reference for self-splicing fitness (ln) among some sequences
Test: self-splicing fitness, log relative to wild type (ln ratio); higher = more splicing; Tetrahymena group I intron in knt gene, E. coli kanamycin selection, DiMSum; sequences stand for … in CUCUCU…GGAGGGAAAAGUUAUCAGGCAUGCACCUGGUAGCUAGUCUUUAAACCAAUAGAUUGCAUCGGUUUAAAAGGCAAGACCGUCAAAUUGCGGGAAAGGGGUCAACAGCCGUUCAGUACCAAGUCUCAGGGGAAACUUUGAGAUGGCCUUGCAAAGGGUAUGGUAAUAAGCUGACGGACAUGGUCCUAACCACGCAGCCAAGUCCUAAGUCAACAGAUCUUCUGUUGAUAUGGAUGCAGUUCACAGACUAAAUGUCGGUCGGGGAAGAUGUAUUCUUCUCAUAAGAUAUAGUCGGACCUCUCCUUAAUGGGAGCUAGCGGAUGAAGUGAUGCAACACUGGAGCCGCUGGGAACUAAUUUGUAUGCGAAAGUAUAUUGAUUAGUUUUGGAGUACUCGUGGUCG;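 further: selection with 25 µg/mL kanamycin versus none on LB agar overnight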
Conditions: 37 °C
recordedMetric: self-splicing fitness (ln)

CCCUAGCAAUAUUACGAGAC: -2.69
CGUUAGCAAUAUUACGUGUG: -1.12
UUAAAGCAAUAUUACGCCGU: -0.394
GGUUAGCAAUAUUACGCGAA: -0.0649
UUCCAGCAAUAUUACGAUAG: -1.4
GUUUAGCAAUAUUACGGGAC: -1.98
GCGAAGCAAUAUUACGAGUU: -2.16

====

Experiment: self-splicing fitness, log relative to wild type (ln ratio); higher = more splicing; Tetrahymena group I intron in knt gene, E. coli kanamycin selection, DiMSum; sequences stand for … in CUCUCU…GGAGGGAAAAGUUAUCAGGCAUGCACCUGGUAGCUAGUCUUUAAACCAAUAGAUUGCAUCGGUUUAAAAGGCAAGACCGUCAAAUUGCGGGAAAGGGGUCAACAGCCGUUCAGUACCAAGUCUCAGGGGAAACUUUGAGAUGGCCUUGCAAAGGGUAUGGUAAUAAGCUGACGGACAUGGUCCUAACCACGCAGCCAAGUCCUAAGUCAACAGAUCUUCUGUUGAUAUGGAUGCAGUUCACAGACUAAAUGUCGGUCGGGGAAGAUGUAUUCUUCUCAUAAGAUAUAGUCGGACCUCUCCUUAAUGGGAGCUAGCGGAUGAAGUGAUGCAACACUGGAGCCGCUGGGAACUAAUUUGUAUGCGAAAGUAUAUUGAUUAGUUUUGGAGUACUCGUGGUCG
Conditions: 37 °C
The label depends only on self-splicing fitness (ln): True if it is at least -1, False if it is smaller.

UUAAAGCAAUAUUACGCUCC: False
UACUAGCAAUAUUACGUAGU: False
UUAGAGCAAUAUUACGCGCG: True
AGCUAGCAAUAUUACGUCAU: False
GACCAGCAAUAUUACGCGGA: True
UGGGAGCAAUAUUACGCGGG: False
CGGAAGCAAUAUUACGCACA: True
UCGUAGCAAUAUUACGUUGA: True
CUCUAGCAAUAUUACGGUCA: False
GUUUAGCAAUAUUACGGCCA: True
AUAUAGCAAUAUUACGUACC: True
GUUAAGCAAUAUUACGAGUA: False
UGUGAGCAAUAUUACGCAAC: False
ACGAAGCAAUAUUACGCCAA: False
UAUCAGCAAUAUUACGAAUC: True
GUCGAGCAAUAUUACGUUUU: False
GAUAAGCAAUAUUACGCCGU: True
GAUCAGCAAUAUUACGUGGA: False
CUCCAGCAAUAUUACGGGCA: False
GGUUAGCAAUAUUACGUAAU: True
UGAGAGCAAUAUUACGCGGC: False
GGAUAGCAAUAUUACGUUCU: False
GUCAAGCAAUAUUACGAUAC: False
GGUAAGCAAUAUUACGACCC: False

====

Test: self-splicing fitness, log relative to wild type (ln ratio); higher = more splicing; Tetrahymena group I intron in knt gene, E. coli kanamycin selection, DiMSum; sequences stand for … in CUCUCU…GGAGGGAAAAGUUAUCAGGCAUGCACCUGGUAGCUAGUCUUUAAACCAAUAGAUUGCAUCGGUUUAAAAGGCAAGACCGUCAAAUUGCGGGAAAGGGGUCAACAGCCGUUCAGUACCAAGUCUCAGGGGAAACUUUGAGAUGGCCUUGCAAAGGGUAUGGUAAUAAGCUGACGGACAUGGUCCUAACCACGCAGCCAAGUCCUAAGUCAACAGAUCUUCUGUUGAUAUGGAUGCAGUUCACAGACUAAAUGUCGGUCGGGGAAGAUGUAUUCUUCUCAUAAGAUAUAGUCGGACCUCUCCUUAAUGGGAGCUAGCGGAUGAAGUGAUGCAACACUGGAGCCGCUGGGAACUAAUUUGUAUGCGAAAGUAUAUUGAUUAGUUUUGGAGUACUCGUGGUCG
Settings: 30 °C
Classify as follows. Reported self-splicing fitness (ln) greater than or equal to -2: true (1). Reported self-splicing fitness (ln) below: false (0).

UGUGAGCAAUAUUACGAAAU: false (0)
ACUGAGCAAUAUUACGCAGA: false (0)
CGGUAGCAAUAUUACGGCUC: true (1)
AUCUAGCAAUAUUACGUGGG: false (0)
CGGAAGCAAUAUUACGGGAG: false (0)
AUAUAGCAAUAUUACGUUCA: true (1)
ACUCAGCAAUAUUACGAAGG: true (1)
CGCUAGCAAUAUUACGUUAC: false (0)
UUAGAGCAAUAUUACGCUGG: true (1)
ACUCAGCAAUAUUACGGGCG: true (1)
UGGAAGCAAUAUUACGAGUU: false (0)
UGUGAGCAAUAUUACGCCGA: false (0)
ACUUAGCAAUAUUACGUGAA: false (0)

====

Assay: self-splicing fitness, log relative to wild type (ln ratio); higher = more splicing; Tetrahymena group I intron in knt gene, E. coli kanamycin selection, DiMSum; sequences stand for … in CUCUCU…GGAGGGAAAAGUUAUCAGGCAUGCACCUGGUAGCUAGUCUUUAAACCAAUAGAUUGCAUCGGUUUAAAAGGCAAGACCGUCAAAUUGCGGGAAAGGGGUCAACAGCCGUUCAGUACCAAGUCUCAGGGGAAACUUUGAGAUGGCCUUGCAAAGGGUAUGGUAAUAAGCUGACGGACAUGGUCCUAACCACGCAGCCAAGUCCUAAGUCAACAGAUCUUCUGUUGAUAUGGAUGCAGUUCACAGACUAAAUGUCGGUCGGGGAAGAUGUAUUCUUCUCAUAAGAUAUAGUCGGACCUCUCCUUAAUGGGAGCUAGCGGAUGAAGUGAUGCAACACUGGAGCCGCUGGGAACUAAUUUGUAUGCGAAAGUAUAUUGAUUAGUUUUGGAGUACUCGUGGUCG
Conditions: 37 °C
Binning rule for recorded self-splicing fitness (ln): range 1 = under -2, range 2 = from -2 up to -0.7, range 3 = -0.7 and over

UUUCAGCAAUAUUACGGGCG: range 3
CUGCAGCAAUAUUACGUGCC: range 1
UCUCAGCAAUAUUACGUACC: range 2
GCACAGCAAUAUUACGUUCG: range 3
CUUCAGCAAUAUUACGGCAC: range 3
UCGCAGCAAUAUUACGCGCG: range 1
UGAUAGCAAUAUUACGCCCA: range 3
AGCCAGCAAUAUUACGCCCG: range 2
UGCUAGCAAUAUUACGGUGA: range 3
GAUAAGCAAUAUUACGGGGU: range 2
GUAUAGCAAUAUUACGAGAU: range 2
AAGAAGCAAUAUUACGGAGA: range 1
ACCUAGCAAUAUUACGCAAU: range 2
ACUCAGCAAUAUUACGUUAA: range 2
CACAAGCAAUAUUACGGAAC: range 1
ACUCAGCAAUAUUACGUUCG: range 3
UGCAAGCAAUAUUACGCAUC: range 2
ACUUAGCAAUAUUACGAGAG: range 2
CGAAAGCAAUAUUACGAACC: range 2
UUUUAGCAAUAUUACGACGA: range 3
GGGCAGCAAUAUUACGGUGC: range 2

====

Test: self-splicing fitness, log relative to wild type (ln ratio); higher = more splicing; Tetrahymena group I intron in knt gene, E. coli kanamycin selection, DiMSum; sequences stand for … in CUCUCU…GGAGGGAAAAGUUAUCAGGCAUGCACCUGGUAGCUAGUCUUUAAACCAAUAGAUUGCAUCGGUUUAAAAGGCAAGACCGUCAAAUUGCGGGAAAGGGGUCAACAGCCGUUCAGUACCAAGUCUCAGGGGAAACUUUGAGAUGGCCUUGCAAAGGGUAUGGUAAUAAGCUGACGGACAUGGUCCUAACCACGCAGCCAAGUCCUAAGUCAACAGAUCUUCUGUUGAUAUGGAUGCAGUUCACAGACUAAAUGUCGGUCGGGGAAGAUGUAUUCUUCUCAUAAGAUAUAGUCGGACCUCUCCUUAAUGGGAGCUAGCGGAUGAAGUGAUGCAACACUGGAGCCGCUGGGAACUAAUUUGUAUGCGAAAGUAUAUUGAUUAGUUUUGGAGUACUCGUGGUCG
Details: 30 °C
Assign class by self-splicing fitness (ln): not lower than -1 means Satisfied; lower than -1 means Not satisfied.

GUAAAGCAAUAUUACGGCGC: Satisfied
UCCUAGCAAUAUUACGCUAA: Not satisfied
CUAGAGCAAUAUUACGGAUC: Not satisfied
GCCGAGCAAUAUUACGCGCA: Not satisfied
CUUCAGCAAUAUUACGGGGG: Not satisfied

Source of measurements: the supplement of paper PMC7877785
